Measured Ki, listed per entry.
Biological target: alpha1D adrenoceptor (Homo sapiens)
Construct: expressed in transfected cells; host or cells: CHO-K1
Sequence (P25100 whole entry, species assumed): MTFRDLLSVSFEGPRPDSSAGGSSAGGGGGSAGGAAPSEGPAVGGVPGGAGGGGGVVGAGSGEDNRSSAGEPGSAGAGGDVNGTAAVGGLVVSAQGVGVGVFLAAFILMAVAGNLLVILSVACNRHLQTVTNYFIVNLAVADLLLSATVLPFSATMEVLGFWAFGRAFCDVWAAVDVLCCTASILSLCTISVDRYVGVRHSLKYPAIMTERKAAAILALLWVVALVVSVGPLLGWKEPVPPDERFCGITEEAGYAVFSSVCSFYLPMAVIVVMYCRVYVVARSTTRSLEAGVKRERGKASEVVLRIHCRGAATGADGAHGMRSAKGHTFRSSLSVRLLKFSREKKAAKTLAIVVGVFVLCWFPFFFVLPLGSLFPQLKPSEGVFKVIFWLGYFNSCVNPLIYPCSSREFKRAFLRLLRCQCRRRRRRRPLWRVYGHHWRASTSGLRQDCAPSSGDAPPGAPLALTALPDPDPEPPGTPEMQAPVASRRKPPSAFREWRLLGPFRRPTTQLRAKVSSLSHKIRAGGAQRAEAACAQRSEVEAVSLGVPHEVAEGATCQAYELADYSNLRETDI
Assay: [3H]prazosin binding (alpha1-adrenoceptor) assay, alpha 1D
Conditions: transfected CHO-K1 cell membranes, read-out: pKi alpha 1D (converted)
Experimental: Alpha1 A, alpha1B, and alpha1D adrenoceptor transfected CHO-K1 cells, prepared using the methods described by Chang et al., FEBS Lett. 1998, 422:279-283, were grown to confluence in T-162 tissue culture flasks in Ham's F-12 culture medium supplemented with 10% fetal bovine serum, geneticin (150 μg/mL) and streptomycin/penicillin (30 μg/mL/30 μg/mL) at 37° C. in 7% CO2. Cells were harvested by incubating with phosphate-buffered saline (PBS) containing 30 μM EDTA for 5-10 min at 37° C. […]
Unit nM implied. Number only.

Please review the entries below; each comes with its answer.
[
  {
    "structure-smiles-string": "CNCC(=O)N(C)Cc1cccc2c1CCN(c1nc(=O)c3c(C)c(OC)c(OC)cc3[nH]1)C2",
    "test-readout": "Ki",
    "quantity-unit": "nM",
    "quantitative-readout": 79.4
  },
  {
    "structure-smiles-string": "COc1cc2[nH]c(N3CCC(CCn4ccnc4)CC3)nc(=O)c2c(C)c1OC",
    "test-readout": "Ki",
    "quantity-unit": "nM",
    "quantitative-readout": 87.1
  }
]

Ask: Which value of Ki has been reported for COc1cc2[nH]c(N3CCN(c4ncc[nH]4)CC3)nc(=O)c2c(OC)c1OC in the records?
Result: 457

Ask: Which value of Ki has been reported for COc1cc2[nH]c(N3CCC4(CC3)CN(c3ccc(F)cc3)C(=O)CO4)nc(=O)c2c(OC)c1OC in the records?
Result: 257
